- SYSTEM_TESTED: FGFR2 (Homo sapiens, UniProt P21802)
- Construct: made in house; host or cells: E. coli host derived from BL21, infected with T7 phage
- Sequence (P21802 22-821): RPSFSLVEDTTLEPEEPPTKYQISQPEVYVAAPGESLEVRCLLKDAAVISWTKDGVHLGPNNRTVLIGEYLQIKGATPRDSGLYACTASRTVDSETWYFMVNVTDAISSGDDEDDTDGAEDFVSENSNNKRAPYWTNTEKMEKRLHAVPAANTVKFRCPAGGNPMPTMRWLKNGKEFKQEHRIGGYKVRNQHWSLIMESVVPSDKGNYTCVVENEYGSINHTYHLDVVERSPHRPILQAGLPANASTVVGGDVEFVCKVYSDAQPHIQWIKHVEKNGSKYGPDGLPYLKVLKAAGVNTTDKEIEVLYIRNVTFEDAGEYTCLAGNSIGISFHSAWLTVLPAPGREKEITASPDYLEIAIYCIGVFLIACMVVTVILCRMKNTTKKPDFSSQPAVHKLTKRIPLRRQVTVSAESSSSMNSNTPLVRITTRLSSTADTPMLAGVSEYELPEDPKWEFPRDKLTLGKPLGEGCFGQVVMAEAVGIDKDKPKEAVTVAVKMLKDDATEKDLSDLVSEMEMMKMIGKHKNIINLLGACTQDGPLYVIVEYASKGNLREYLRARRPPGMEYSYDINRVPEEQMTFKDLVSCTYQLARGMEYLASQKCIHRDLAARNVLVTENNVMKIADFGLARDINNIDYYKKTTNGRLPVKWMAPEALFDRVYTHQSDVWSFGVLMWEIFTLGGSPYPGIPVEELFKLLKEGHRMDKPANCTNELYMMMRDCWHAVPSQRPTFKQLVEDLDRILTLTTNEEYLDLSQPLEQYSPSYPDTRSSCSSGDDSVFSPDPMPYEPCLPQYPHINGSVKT
- ASSAY_EXPLANATION: Kinase binding assay (Kd), FGFR2
- TEST_CONDITIONS: 11-point 3-fold dilution, qPCR readout
ASSAY_READOUT: Kd (nM)
Use nM as the unit, but write only the number.

Q) Reported Kd for COc1cc(N=S(C)(C)=O)ccc1Nc1ncc(Cl)c(-c2c[nH]c3ccccc23)n1 : what is it?
A) 370

Q) Can you handle CN=S(C)(=O)c1ccc(Nc2ncc(Cl)c(-c3c[nH]c4ccccc34)n2)c(OC)c1 (stereo not shown) next?
A) 1200

Q) Can you handle COc1cc(S(C)(=N)=O)ccc1Nc1ncc(C)c(-n2ccc3ccccc32)n1 (stereo not shown) next?
A) 3300

Q) Can you handle CS(C)(=O)=Nc1ccc(Nc2ncc(Cl)c(-n3ccc4c(N)cccc43)n2)cc1 next?
A) 140

Q) Can you handle C=CC(=O)Nc1ccc2c(ccn2-c2nc(Nc3ccc(S(C)(=N)=O)cc3OC)ncc2Cl)c1 (stereo not shown) [Example 71] next?
A) 3000

Q) Can you handle CS(=N)(=O)c1ccc(Nc2ncc(Cl)c(-c3c[nH]c4ccccc34)n2)cc1 (stereo not shown) next?
A) 9

Q) Can you handle COc1cc(N2CCS(=N)(=O)CC2)ccc1Nc1ncc(Cl)c(-c2c[nH]c3ccccc23)n1 next?
A) 200
